Measured target: human ether-à-go-go-related gene (hERG) potassium channel (human);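 note: peak tail current of the secondary pulse compared with the same well before compound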
Sequence (Q12809 whole entry, looked up): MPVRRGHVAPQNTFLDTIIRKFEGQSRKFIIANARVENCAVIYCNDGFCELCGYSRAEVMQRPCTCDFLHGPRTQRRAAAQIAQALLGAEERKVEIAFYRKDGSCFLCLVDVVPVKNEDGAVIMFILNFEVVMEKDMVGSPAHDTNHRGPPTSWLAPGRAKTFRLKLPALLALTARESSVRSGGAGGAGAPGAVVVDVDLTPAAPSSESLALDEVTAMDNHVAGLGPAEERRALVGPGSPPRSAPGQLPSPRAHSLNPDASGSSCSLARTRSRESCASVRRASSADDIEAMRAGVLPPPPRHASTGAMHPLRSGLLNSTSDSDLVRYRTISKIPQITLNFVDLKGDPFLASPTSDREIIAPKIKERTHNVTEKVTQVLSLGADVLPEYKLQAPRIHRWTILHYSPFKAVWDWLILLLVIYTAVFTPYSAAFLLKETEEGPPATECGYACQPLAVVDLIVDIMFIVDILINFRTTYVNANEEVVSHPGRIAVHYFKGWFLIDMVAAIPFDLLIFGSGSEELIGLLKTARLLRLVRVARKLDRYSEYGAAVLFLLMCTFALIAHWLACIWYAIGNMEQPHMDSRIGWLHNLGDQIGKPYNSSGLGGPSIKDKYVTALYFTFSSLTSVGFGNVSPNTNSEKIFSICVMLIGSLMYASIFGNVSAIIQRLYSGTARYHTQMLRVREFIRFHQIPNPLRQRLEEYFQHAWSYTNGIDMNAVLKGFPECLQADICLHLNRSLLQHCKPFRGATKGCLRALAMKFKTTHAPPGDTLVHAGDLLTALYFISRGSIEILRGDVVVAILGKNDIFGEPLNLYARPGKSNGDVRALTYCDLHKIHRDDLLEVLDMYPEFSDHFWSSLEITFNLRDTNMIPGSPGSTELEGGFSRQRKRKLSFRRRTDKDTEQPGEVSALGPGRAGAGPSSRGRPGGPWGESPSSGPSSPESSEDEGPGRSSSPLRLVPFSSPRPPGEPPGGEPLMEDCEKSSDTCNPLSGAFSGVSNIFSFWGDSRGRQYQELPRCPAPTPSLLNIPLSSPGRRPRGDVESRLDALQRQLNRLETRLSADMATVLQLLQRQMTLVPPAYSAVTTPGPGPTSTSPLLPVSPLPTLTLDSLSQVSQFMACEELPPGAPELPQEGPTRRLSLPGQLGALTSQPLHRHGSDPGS
Assay text: primary screen, population patch clamp on CHO cells stably expressing hERG; higher = less effect of the substance
Out of some 310,000 compounds screened, about 14,000 (4.5%) showed an effect of 50% or more. Effects have a minus sign here. The sample holds strong results, similar compounds and a random draw of the others, so the mix is not that of the screen.
Entry flag: satisfied if hERG current change (%, negative = inhibition) at 10uM reaches -10%; not satisfied if it does not.

Prompt: Record O=C(Nc1nc2ccccc2[nH]1)c1ccc(S(=O)(=O)N2CCOCC2)cc1 ; criterion: hERG current change (%, negative = inhibition) at 10uM no lower than -10%. Met?
Completion: satisfied

Prompt: Form field: hERG current change (%, negative = inhibition) at 10uM at least -10%? Entry: COc1ccc(C(=O)Nc2ccc(NC(=O)c3ccccc3)cc2)cc1S(=O)(=O)N1CCOCC1
Completion: satisfied

Prompt: State whether the measured hERG current change (%, negative = inhibition) at 10uM reaches -10%, counting equality as reaching it, for Cc1ccc(C(=O)N/C(=C/c2cccc([N+](=O)[O-])c2)C(=O)NCC2CCCO2)cc1 (stereo not shown)
Completion: not satisfied

Prompt: Check if hERG current change (%, negative = inhibition) at 10uM >= -10% (inclusive). Item: CC(=O)N/C(=C\c1cccc([N+](=O)[O-])c1)C(=O)NC(C)C
Completion: satisfied

Prompt: Does COc1ccccc1CCC(=O)Nc1nc2ccccc2[nH]1 have a reported hERG current change (%, negative = inhibition) at 10uM of at least -10%?
Completion: satisfied

Prompt: Could you verify whether the entry COc1ccc(C(=O)Nc2nc3ccccc3[nH]2)cc1S(=O)(=O)N1CCCC1 shows hERG current change (%, negative = inhibition) at 10uM of no less than -10%?
Completion: not satisfied

Prompt: Please check the record COc1ccc(C(=O)Nc2nc3ccccc3[nH]2)cc1OC and state if its hERG current change (%, negative = inhibition) at 10uM is at or above -10%.
Completion: satisfied

Prompt: Quick check, hERG current change (%, negative = inhibition) at 10uM >= -10%? O=C(/C=C/c1cccc([N+](=O)[O-])c1)NCc1cccnc1
Completion: not satisfied

Prompt: Item COc1ccc(C(=O)Nc2ccccc2C)cc1S(=O)(=O)N1CCOCC1 with hERG current change (%, negative = inhibition) at 10uM of -10% or above?
Completion: satisfied

Prompt: Decide: hERG current change (%, negative = inhibition) at 10uM of Cc1c(Cl)cccc1NC(=S)N(Cc1ccco1)C(C)c1ccccn1 (stereo not shown) >= -10%?
Completion: not satisfied

Prompt: Determine whether this molecule has hERG current change (%, negative = inhibition) at 10uM no lower than -10%: Cc1ccc(C(=O)N/C(=C/c2cccc([N+](=O)[O-])c2)C(=O)NC(C)C)cc1
Completion: not satisfied

Prompt: Say whether O=C(NCC1CCCO1)/C(=C\c1cccc([N+](=O)[O-])c1)NC(=O)c1ccccc1 (stereo not shown) shows hERG current change (%, negative = inhibition) at 10uM of -10% or more.
Completion: not satisfied

Prompt: Quick check, hERG current change (%, negative = inhibition) at 10uM >= -10%? COc1ccc(CSc2ccc(-c3nc4ccccn4c3NCc3ccccc3)cc2OC)cc1.O=C(O)C(F)(F)F
Completion: satisfied

Prompt: Would you say COc1ccc(CCC(=O)Nc2nc3ccccc3[nH]2)cc1OC shows hERG current change (%, negative = inhibition) at 10uM at minimum -10%?
Completion: not satisfied

Prompt: // inclusive: hERG current change (%, negative = inhibition) at 10uM at least -10%? input: O=C(Nc1nc2ccccc2[nH]1)c1cccc(S(=O)(=O)N2CCOCC2)c1
Completion: satisfied

Prompt: Please check the record COc1ccc(S(=O)(=O)Nc2cc3c4c(c2)CC(=O)N4CCC3)cc1C and state if its hERG current change (%, negative = inhibition) at 10uM is at or above -10%.
Completion: satisfied

Prompt: Tell me whether hERG current change (%, negative = inhibition) at 10uM is at least -10% here: CC(C)NC(=O)/C(=C\c1cccc([N+](=O)[O-])c1)NC(=O)c1ccccc1
Completion: not satisfied

Prompt: Is hERG current change (%, negative = inhibition) at 10uM at least -10%? Consider O=C(Nc1nc2ccccc2[nH]1)c1ccc(F)c(S(=O)(=O)N2CCOCC2)c1
Completion: not satisfied

Prompt: Is hERG current change (%, negative = inhibition) at 10uM at least -10%? Consider N#C/C(=C\c1cccc([N+](=O)[O-])c1)C(=O)Nc1cccnc1
Completion: satisfied

----------
Task for the reader: assign each of the following molecules its reported hERG current change (%, negative = inhibition) at 10uM.
Measured target: human ether-à-go-go-related gene (hERG) potassium channel (human);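 note: peak tail current of the secondary pulse compared with the same well before compound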
Assay text: primary screen, population patch clamp on CHO cells stably expressing hERG; higher = less effect of the substance
The whole screen tested about 310,000 compounds, of which about 14,000 (4.5%) showed an effect of 50% or more. Effects have a minus sign here. Many of the other results were omitted from the sample, so strong results are more common in it than they were.
Reply numerically in %, unit not repeated.

Prompt: So what does the record say about hERG current change (%, negative = inhibition) at 10uM for CCN1CCN(C(c2cccnc2)c2c(NC(=O)c3ccco3)sc(C)c2C)CC1 (centres unmarked) ?
Completion: -58.4

Prompt: GET /values?readout=hERG current change (%, negative = inhibition) at 10uM&item= CC1(C)CC(=O)C=C(NC2=CC3OC(c4ccccc4)OCC3OC2=O)C1 (centres unmarked)
Completion: -0.196

Prompt: What hERG current change (%, negative = inhibition) at 10uM value was documented for this molecule, CCCCCc1nnc(NC(=O)C2CCCO2)s1 (centres unmarked) ?
Completion: -1.64

Prompt: I'd like to know its hERG current change (%, negative = inhibition) at 10uM. The molecule in question is COc1ccc(-[n+]2c(C)cc(/C=C3\Sc4ccccc4N3C)cc2C)cc1.[I-]
Completion: -60.2

Prompt: Reported hERG current change (%, negative = inhibition) at 10uM, molecule Cc1sc(NC(=O)c2ccco2)c(C(c2cccnc2)N2CCN(CCO)CC2)c1C (centres unmarked) : ____
Completion: -20.9

Prompt: I have this molecule here, CCOC(=O)C1CCN(C(=O)Cn2nc(CC)n3cccc3c2=O)CC1 , and I need its recorded hERG current change (%, negative = inhibition) at 10uM.
Completion: -0.254

Prompt: Recorded hERG current change (%, negative = inhibition) at 10uM for Cn1cc(CN2CC3C[C@@H]4CC2C[C@H](C3)C4)c(-c2ccc3c(c2)OCCO3)n1 , please?
Completion: -8.66

Prompt: Recorded hERG current change (%, negative = inhibition) at 10uM for CCOC(=O)c1cc(NC(=O)N(CC)CC)c(C)nc1C , please?
Completion: 5.59

Prompt: Would you mind telling me what hERG current change (%, negative = inhibition) at 10uM value was observed for Cc1ccc(N(CC(O)CN2CCOCC2)S(=O)(=O)c2ccc([N+](=O)[O-])cc2)cc1 (centres unmarked) ?
Completion: -65.2

Prompt: Field request: hERG current change (%, negative = inhibition) at 10uM | item: CN1/C(=C/c2cccc[n+]2C)Sc2ccccc21.[I-]
Completion: -22.7

Prompt: I'd like to know its hERG current change (%, negative = inhibition) at 10uM. The molecule in question is CC(=O)N1CCC2(CC1)C(C#N)=C(N)OC1=C2C(=O)CC(C)(C)C1
Completion: 8.09

Prompt: Consider the molecule shown here: COc1cc(OC)cc(C(=O)/C=C2\Sc3ccccc3N2C)c1 What is its recorded hERG current change (%, negative = inhibition) at 10uM?
Completion: 9.82

Prompt: I'd like to know its hERG current change (%, negative = inhibition) at 10uM. The molecule in question is COc1ccc(CCNC(=O)COC(=O)/C=C/c2ccc(OCC#N)c(OC)c2)cc1OC
Completion: -17.1

Prompt: Can you look up the measured hERG current change (%, negative = inhibition) at 10uM of CC(=O)OCCCCCCCCCCC[N+]1(C)CCCCC1.[I-] for me?
Completion: -7.49

Prompt: Looking for the measured hERG current change (%, negative = inhibition) at 10uM of O=C(c1cc(F)cc2c1OCOC2)N1CCN(c2ccc(F)cc2)CC1 , can you help?
Completion: -16

Prompt: So what's the measured hERG current change (%, negative = inhibition) at 10uM for this one? Cc1sc(NC(=O)c2ccco2)c(C(c2cccnc2)N2CCN(C)CC2)c1C (centres unmarked)
Completion: -32.7

Prompt: Which hERG current change (%, negative = inhibition) at 10uM reading was recorded for the molecule Cc1c(C(=O)N(Cc2ccccc2)Cc2cccs2)cnn1-c1ccc(Cl)cc1 ?
Completion: -3.32

Prompt: Given the molecule Cc1sc(NC(=O)c2ccco2)c(C(c2cccnc2)N2CCN(c3ccc(F)cc3)CC2)c1C (centres unmarked) , what is its reported hERG current change (%, negative = inhibition) at 10uM?
Completion: 1.92

Prompt: Which value of hERG current change (%, negative = inhibition) at 10uM has been reported for Cc1sc(NC(=O)c2ccco2)c(C(c2ccc(F)cc2)N2CCN(C)CC2)c1C (centres unmarked) in the records?
Completion: -68.1

Prompt: Look up hERG current change (%, negative = inhibition) at 10uM for this molecule: COc1ccc(C(=O)/C=C2\Sc3ccccc3N2C)cc1
Completion: 11.1

Measured values drawn from paper PMC4336329 for this set.
